details: 314.9 K; 101.33 kPa; Liquid; Pulse-echo method
measuredParameter: speed of sound (m/s)

INSERT INTO assay_data (compound, quantitativeresult) VALUES
  ('CCCCC(=O)[O-].C[NH2+]CCO [2-hydroxy-N-methylethanaminium pentanoate]', 1496.8),
  ('CCC(=O)[O-].C[NH2+]CCO [2-hydroxy-N-methylethanaminium propionate]', 1640.5),
  ('C[NH2+]CCO.O=C[O-] [2-hydroxy-N-methylethanaminium formate]', 1782.7),
  ('CCCC(=O)[O-].C[NH2+]CCO [N-methyl-2-hydroxyethylammonium butanoate]', 1562.1),
  ('CC(C)C(=O)[O-].C[NH2+]CCO [2-hydroxy-N-methylethanaminium isobutyrate]', 1564);
